System: HL-60(TB)
Assay: Antitumor activity against human HL-60(TB) cells assessed as cell growth at 10 uM after 48 hrs by sulforhodamine B assay
Type: functional
Conditions: HL-60, 48 h, read-out: Activity
This section presents molecules with their documented growth at 10 µM values.
Answer format: numeric, % implied, no suffix.

Observe how each entry below is paired with its result.
>>> measuredresult("CN1C/C(=C\\c2ccc(Cl)cc2)C(=O)[C@]2(C1)[C@@H](c1ccc(Cl)cc1)CN(C)[C@@]21C(=O)N(C)c2ccccc21")
16.6
>>> measuredresult("CN1C/C(=C\\c2ccc(-c3cccs3)cc2)C(=O)[C@]2(C1)[C@@H](c1ccc(-c3cccs3)cc1)CN(C)[C@@]21C(=O)N(C)c2ccccc21")
22.6
>>> measuredresult("COc1ccc(/C=C2\\CN(C)C[C@@]3(C2=O)[C@@H](c2ccccc2)CN(C)[C@@]32C(=O)Nc3ccccc32)cc1")
21.5

Would you kindly look at the next entry?
Challenge: Query growth at 10 µM for CN1C/C(=C\c2ccc(Cl)cc2)C(=O)[C@]2(C1)[C@@H](c1ccc(Cl)cc1)CN(C)[C@@]21C(=O)Nc2ccccc21
Response given: 41.6

Cited source: ChEMBL document CHEMBL1138574
